// MIC collected for Shigella sonnei IID 969
Structures can show the parent of a compound that is named as a salt.
Report as: number unit

The reported value for O=C(O)c1cn(C2CC2)c2cc(N3CCC(CNCCO)C3)c(F)cc2c1=O (stereo not shown) [Exp. 2, hydrochloride] in terms of MIC is 0.1 µg/mL

The reported value for O=C(O)c1cn(C2CC2)c2c(Cl)c(N3CCC(CNCCO)C3)c(F)cc2c1=O (stereo not shown) in terms of MIC is 0.05 µg/mL

The reported value for O=C(O)c1cn(C2CC2)c2c(F)c(N3CCC(CNCCO)C3)c(F)cc2c1=O (stereo not shown) in terms of MIC is 0.05 µg/mL

The reported value for O=C(O)c1cn(C2CC2)c2cc(N3CCNCC3)c(F)cc2c1=O [CPFX, Ciprofloxacin, reference compound] in terms of MIC is 0.0125 µg/mL

meta.source: patent EP0221541A2
